biological target: Cannabinoid receptor 1 (Rattus norvegicus, UniProt P20272); assay: Agonist activity at rat CB1 receptor expressed in CHO-K1 cells assessed as inhibition of forskolin-stimulated cAMP level
Sequence (P20272 whole entry): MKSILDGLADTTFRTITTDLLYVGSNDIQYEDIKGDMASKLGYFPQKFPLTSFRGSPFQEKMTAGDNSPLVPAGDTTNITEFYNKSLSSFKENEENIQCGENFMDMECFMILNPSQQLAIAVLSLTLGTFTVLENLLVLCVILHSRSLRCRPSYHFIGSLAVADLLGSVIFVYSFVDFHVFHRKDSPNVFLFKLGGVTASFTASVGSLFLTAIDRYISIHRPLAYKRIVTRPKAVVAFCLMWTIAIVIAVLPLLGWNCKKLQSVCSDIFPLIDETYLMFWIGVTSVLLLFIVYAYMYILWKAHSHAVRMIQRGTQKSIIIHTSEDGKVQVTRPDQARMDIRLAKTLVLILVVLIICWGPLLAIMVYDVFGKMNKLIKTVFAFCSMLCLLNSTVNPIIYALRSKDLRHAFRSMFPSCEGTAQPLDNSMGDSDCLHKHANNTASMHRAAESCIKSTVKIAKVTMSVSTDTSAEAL
pIC50: −log10 of the molar value.
Measured Quantity: pIC50

O=C(c1cccc(Cl)c1Cl)c1nc(CN2CCOCC2)c2ccccn12; 5.97

====

assay: Plasma protein binding in rat assessed as fraction unbound; assay type: ADME, cell-free
Response key: condition met means fraction unbound >= 0.1; condition not met means fraction unbound < 0.1.

O=C(NC(c1ccncc1)c1ccc(F)cc1)c1nc(N2CCC(F)(F)C2)c2cnccn12 (stereo unspecified); condition not met
O=C(c1cccc(F)c1C(F)(F)F)c1nc(CN2CCOCC2)c2ccccn12; condition not met
O=C(c1cccc(Cl)c1Cl)c1nc(CN2CCOCC2)c2ccccn12; condition met
O=C(NC(c1cccnc1)C(F)(F)F)c1nc(N2CCOCC2)c2cnccn12 (stereo unspecified); condition met
C[C@@H](NC(=O)c1nc(N2CCC(F)(F)CC2)c2cnccn12)C(C)(C)C; condition not met
O=C(Nc1cccc(C(F)(F)F)n1)c1nc(CN2CCS(=O)(=O)CC2)c2ccccn12; condition met
O=C(NCC1(CO)CCCC1)c1nc(N2CCOCC2)n2ccccc12; condition met
CC(C)(C)CNC(=O)c1nc(C2CC2)n2ccccc12; condition not met
O=C(NC(C1CC1)C1CC1)c1nc(C2CC2)n2ccccc12; condition not met
O=C(N[C@H](c1ccccn1)C(F)(F)F)c1nc(N2CCOCC2)c2cnccn12; condition met
